The measurements presented in this section are drawn from the supplement of paper PMC8728848.

Quick list: glycan array binding signal (z-score) per entry.
Biological target: Neu5Ac(a2-6)Gal(b1-4)GlcNAc(b1-2)Man(a1-3)[Gal(b1-4)GlcNAc(b1-2)Man(a1-6)]Man(b1-4)GlcNAc(b1-4)GlcNAc
Assay: glycan array binding signal (z-score within array); higher = stronger binding
Details: glycan notation: IUPAC condensed, linker removed
Many of the other results were omitted from the sample, so the strongest signals are more common in it than they were.
// no unit string in output, number only

binder="Pwp4 (Candida glabrata) (protein) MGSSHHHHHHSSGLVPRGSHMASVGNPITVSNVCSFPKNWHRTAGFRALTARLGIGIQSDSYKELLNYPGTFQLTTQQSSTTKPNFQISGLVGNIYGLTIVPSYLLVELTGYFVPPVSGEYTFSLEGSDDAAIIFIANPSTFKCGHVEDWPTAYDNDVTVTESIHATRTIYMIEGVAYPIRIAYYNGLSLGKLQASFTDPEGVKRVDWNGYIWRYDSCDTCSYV" reported_measurement=1.01
binder="Epa6 (Candida glabrata), Q6DTM7_CANGB (protein) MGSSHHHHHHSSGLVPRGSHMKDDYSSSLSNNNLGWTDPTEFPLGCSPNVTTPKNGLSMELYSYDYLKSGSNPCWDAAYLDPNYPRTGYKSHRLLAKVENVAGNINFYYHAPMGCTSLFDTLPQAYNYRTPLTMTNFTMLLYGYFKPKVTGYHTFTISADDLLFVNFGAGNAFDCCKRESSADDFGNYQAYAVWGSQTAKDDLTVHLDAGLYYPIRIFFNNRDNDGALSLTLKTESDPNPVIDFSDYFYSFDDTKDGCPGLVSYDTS" reported_measurement=-0.301

In the following, a different binder is considered.
Please report the measured glycan array binding signal (z-score) for PfulAvr4 (Pseudocercospora fuligena) (protein) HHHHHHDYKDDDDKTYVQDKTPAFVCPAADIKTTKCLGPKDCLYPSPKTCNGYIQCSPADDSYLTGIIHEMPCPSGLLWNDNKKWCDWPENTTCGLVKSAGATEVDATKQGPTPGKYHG
3.32
